Item-by-item account of IC50
# target_or_test_system: truncated His-MBP-Tev-KLHDC2 (residues 1-363) (Homo sapiens, UniProt Q9Y2U9)
# Construct: truncated His -MBP-Tev-KLHDC2 (residues 1-363) purified from E. coli; made in house; host or cells: E. coli
# Sequence (Q9Y2U9 1-363): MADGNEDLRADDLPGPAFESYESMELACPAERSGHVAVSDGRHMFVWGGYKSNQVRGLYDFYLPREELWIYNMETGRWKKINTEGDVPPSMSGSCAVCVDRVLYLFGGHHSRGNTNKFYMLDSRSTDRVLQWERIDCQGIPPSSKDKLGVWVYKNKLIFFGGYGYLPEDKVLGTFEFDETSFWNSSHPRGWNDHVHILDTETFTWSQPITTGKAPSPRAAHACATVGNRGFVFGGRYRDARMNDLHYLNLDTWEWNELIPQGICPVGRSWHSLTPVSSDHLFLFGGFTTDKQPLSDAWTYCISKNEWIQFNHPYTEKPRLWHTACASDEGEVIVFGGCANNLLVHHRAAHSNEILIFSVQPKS
# measurement_protocol: KLHDC2 FP competition binding assay
# condition_notes: 15 nM KLHDC2 (residues 1-363), 10 nM fluorescein-labeled diglycine peptide probe, read-out: KLHDC2 binding Human FP: average external IC50

Example compounds with recorded IC50:
compound | target_or_test_system | IC50
Cc1cc(C(=O)Nc2ccc(=O)n(CC(=O)O)c2)sc1-c1ccccc1 [I-297] | truncated His-MBP-Tev-KLHDC2 (residues 1-363) (Homo sapiens, UniProt Q9Y2U9) | > 5 µM
Cc1ccc(Cl)c(-c2ccc(=O)n(CC(=O)O)c2)c1 [I-342] | truncated His-MBP-Tev-KLHDC2 (residues 1-363) (Homo sapiens, UniProt Q9Y2U9) | > 5 µM
Cc1cccc(Cl)c1C(=O)Nc1ccc(=O)n(CC(=O)O)c1 [I-319] | truncated His-MBP-Tev-KLHDC2 (residues 1-363) (Homo sapiens, UniProt Q9Y2U9) | > 5 µM
CCOC(=O)Cn1cc(NC(=O)c2cccc(-c3cnccc3CCCCCCN)c2)ccc1=O [I-152] | truncated His-MBP-Tev-KLHDC2 (residues 1-363) (Homo sapiens, UniProt Q9Y2U9) | > 5 µM
Cc1cc(-c2ccc(=O)n(CC(=O)O)c2)c(C)cc1O [I-360] | truncated His-MBP-Tev-KLHDC2 (residues 1-363) (Homo sapiens, UniProt Q9Y2U9) | > 5 µM

The compound O=C(O)Cn1cc(NC(=O)c2cccc(-c3nc4ccccc4s3)c2)ccc1=O [I-138] showed IC50 equal to 0.5 to 5 µM

Notebook: COc1ncc(-c2ccc(=O)n(CC(=O)O)c2)cc1F [I-365] , IC50 read as > 5 µM

Data point: NCCCCCCc1ccc(C(=O)Nc2ccc(=O)n(CC(=O)O)c2)cc1-c1cccnc1 [I-144] ; IC50 = 0.5 to 5 µM

Noted for O=C(O)Cn1cc(C(=O)NCc2ccccc2)ccc1=O [I-373] : its IC50 reads > 5 µM

IC50 for CCCCC(=O)Nc1cncc(C(=O)Nc2ccc(=O)n(CC(=O)O)c2)c1 [I-241] is > 5 µM

Note to self: IC50 recorded for CNc1cncc(N2CCC[C@H](C(=O)Nc3ccc(=O)n(CC(=O)O)c3)C2)c1 [I-40] was 0.05 to 0.5 µM

Notebook: O=C(O)Cn1cc(NC(=O)c2ccccc2)ccc1=O [I-382] , IC50 read as > 5 µM

Form: compound = CC1(C)CCc2c(C(=O)Nc3ccc(=O)n(CC(=O)O)c3)csc2C1 [I-234] ; IC50 = > 5 µM

get_value(item= O=C(Nc1ccc(=O)n(Cc2nn[nH]n2)c1)c1cccc(-c2cccnc2)c1 [I-79] , readout=IC50) returns > 5 µM

For this compound ( Cc1ccc(C)c(-c2cn(CC(=O)O)c(=O)cc2C)c1 [I-330] ), measured IC50 is > 5 µM

Consider Cc1sc2c(c1C)C(c1ccc(Cl)cc1)=N[C@@H](CC(=O)NCCCCCCc1cc(C(=O)Nc3ccc(=O)n(CC(=O)O)c3)cc(-c3cccnc3)c1)c1nnc(C)n1-2 [I-476] . Its measured IC50 is < 0.05 µM

// IC50 lookup, compound = CC1CCN(c2cccnc2)CC1C(=O)Nc1ccc(=O)n(CC(=O)O)c1 (stereo not shown) [I-61] , result: 0.5 to 5 µM

The recorded IC50 for entry Cc1cc(OCc2ccccc2)ccc1-c1ccc(=O)n(CC(=O)O)c1 [I-366] equals > 5 µM

Item: O=C(O)Cn1c(=O)oc2cc([N+](=O)[O-])ccc21 [I-214] | IC50: > 5 µM

Source listed as patent US20250214969A1.
